# viability at 28.5 h, 10 µM annotations
- experiment: in vitro
- condition_summary: human, hela cells, % viability

compound: CC1=C[C@@H](CO)[C@H](C(C)C)C[C@H]1CC(=O)NCc1cccnc1
viability at 28.5 h, 10 µM: 81.7%
--
compound: O=C(Nc1ncnc2nc[nH]c12)NC1CCCCC1
viability at 28.5 h, 10 µM: 97.7%
--
compound: Cc1ccc(C)c(-c2csc(NS(=O)(=O)c3cccc(C(=O)O)c3)n2)c1
viability at 28.5 h, 10 µM: 86.7%
--
compound: Nc1cccc(-c2nccnc2NCCc2ccccn2)c1
viability at 28.5 h, 10 µM: 102%
--
compound: CC(C(=O)N(CCC#N)Cc1cccnc1)n1cnc2ccccc21 (stereo not shown)
viability at 28.5 h, 10 µM: 92.5%
--
compound: CCNC(=O)COc1ccc(C=Cc2nc(-c3ccccc3)c(C(=O)O)s2)cc1OCC
viability at 28.5 h, 10 µM: 94.6%
--
compound: Cc1nc(-c2cc3c(s2)CCN(CC(O)Cn2cccn2)C3)cs1 (stereo not shown)
viability at 28.5 h, 10 µM: 102%
--
compound: O=C(O)c1ccc(N2C(=O)CC(c3ccccc3)CC2=O)cc1
viability at 28.5 h, 10 µM: 87.3%
--
compound: O=C(N1CCn2cnnc2C1)C1(c2ccccc2)CCCC1
viability at 28.5 h, 10 µM: 90.8%
--
compound: COc1ccc(CCNC(=O)C(=O)Nc2ccc(C)c(C)c2)cc1
viability at 28.5 h, 10 µM: 91.1%
--
compound: CCc1nc2ccc(C(=O)Nc3ccc(C(N)=O)cc3)cn2c1N(C)CCC(C)C
viability at 28.5 h, 10 µM: 90.7%
--
compound: CN1C(/C=N/O)=C(O)c2ccccc2S1(=O)=O
viability at 28.5 h, 10 µM: 94.1%
--
compound: O=c1cc(Nc2ccc3c(c2)OCO3)[nH]c(=O)n1-c1ccc(Cl)cc1
viability at 28.5 h, 10 µM: 86.6%
--
compound: COCC(=O)N1CCN2C(=O)c3ccc(Cl)cc3NC(=O)[C@H]2C1
viability at 28.5 h, 10 µM: 84.6%
--
compound: Cc1csc2c(C3CCCN(C(=O)c4ccnn4C)C3)nc(C)n12 (stereo not shown)
viability at 28.5 h, 10 µM: 96.9%
--
compound: Cc1cc(C[C@@H]2COC[C@H]2NCc2ccc(Cl)cc2)on1
viability at 28.5 h, 10 µM: 93.3%
--
compound: Cc1ccc2c(c1)cc(C(=O)N1CCOC(C(=O)N3CCCCCC3)C1)n2C (stereo not shown)
viability at 28.5 h, 10 µM: 109%
--
compound: CCOc1ccc(C(=O)Nc2ccc(S(=O)(=O)N3CCN(C)CC3)cc2)cc1
viability at 28.5 h, 10 µM: 85.5%
--
compound: NS(=O)(=O)c1cccc(NC(=O)COc2ccc([N+](=O)[O-])cc2)c1
viability at 28.5 h, 10 µM: 92.2%
--
compound: Cc1occc1C(=O)Nc1nc(CC(=O)N2CC(C)SC(C)C2)cs1 (stereo not shown)
viability at 28.5 h, 10 µM: 87.8%
--
compound: CC1(C)CC(=O)C2=C(C1)c1c(ccc3ccccc13)NC2c1ccc(-c2ccc(O)c(C(=O)O)c2)o1 (stereo not shown)
viability at 28.5 h, 10 µM: 108%
--
compound: O=C(Cc1ccsc1)N1CCN(C(=O)c2ccco2)CC1
viability at 28.5 h, 10 µM: 86%
--
compound: CC(Oc1ccc(Br)cc1)C(=O)Nc1nc2c(s1)CCC2 (stereo not shown)
viability at 28.5 h, 10 µM: 84.8%
--
compound: CC(=O)Nc1cccc(CN(CCCCO)C2CC2)c1
viability at 28.5 h, 10 µM: 91.6%
--
compound: COc1ccc(-c2nnc(SCC(=O)NN)n2-c2ccccc2)cc1OC
viability at 28.5 h, 10 µM: 112%
--
compound: c1ccc(CCN2CCC(n3cnc4cccnc43)CC2)cc1
viability at 28.5 h, 10 µM: 88.5%
--
compound: Cc1ccc(S(=O)(=O)N(CC(=O)N/N=C\c2ccc3c(c2)OCO3)c2cccc3cccnc23)cc1
viability at 28.5 h, 10 µM: 101%
--
compound: Cc1cc(COc2nc3ccccc3nc2N2CCCC2C(=O)OC(C)(C)C)no1 (stereo not shown)
viability at 28.5 h, 10 µM: 85.8%
--
compound: CN(Cc1ccccc1)C(=O)[C@H]1C[C@@H](O)[C@H](O)[C@@H]2N=C(Nc3ccc(Cl)cc3)S[C@@H]21
viability at 28.5 h, 10 µM: 105%
--
compound: O=C1C(NCCO)=C(Nc2cccc(Cl)c2)C(=O)c2ccccc21
viability at 28.5 h, 10 µM: 91.7%
--
compound: O=C1COc2ccccc2CCCC[C@@H]2CN(C(=O)Cn3ccc(=O)[nH]c3=O)CC[C@H]2N1
viability at 28.5 h, 10 µM: 102%
--
compound: CC(C)NC(=O)N1CCc2sccc2C1c1ccc(Cl)cc1 (stereo not shown)
viability at 28.5 h, 10 µM: 108%
--
compound: Cc1ccc(C2=CCN(CC(=O)N(C)C3CCCCC3)CC2)o1
viability at 28.5 h, 10 µM: 91.6%
--
compound: CN(C)CCN(C)c1cncc(-c2cccc3ccccc23)n1
viability at 28.5 h, 10 µM: 106%
--
compound: COc1ccc2[nH]c([C@H]3CCN(S(C)(=O)=O)C3)nc2c1
viability at 28.5 h, 10 µM: 111%
--
compound: CCc1nnc2sc(-c3ccccc3Br)nn12
viability at 28.5 h, 10 µM: 67.4%
--
compound: O=C(Nc1cccc([N+](=O)[O-])c1)c1ccc2nc(-c3ccccn3)c(-c3ccccn3)nc2c1
viability at 28.5 h, 10 µM: 101%

Cited source for all entries: paper PMC12040169
